Catalogue of Kd readings, one per entry.
molecular target: T1, human CD40 extracellular domain with C-terminal His-AviTag (human, UniProt P25942 21-193); assay: SPR, antibody captured, CD40 ECD analyte;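 further: biacore SPR at 25 °C in PBS-T pH 7.4, CD40 ECD analyte from 300 nM in 1:3 series, 300 s association, up to 1200 s dissociation, double-referenced, Langmuir 1:1 fit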
T1 construct: not shown: C-terminal His-AviTag
T1 sequence (P25942 21-193): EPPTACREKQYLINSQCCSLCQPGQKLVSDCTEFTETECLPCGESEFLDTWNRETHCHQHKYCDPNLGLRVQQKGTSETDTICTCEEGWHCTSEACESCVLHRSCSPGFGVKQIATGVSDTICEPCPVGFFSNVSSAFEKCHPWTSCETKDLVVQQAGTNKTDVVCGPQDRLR
Give the quantity in nM, number only.

[Q] Look up Kd of P1AE0817, humanized anti-CD40 antibody VH1a/VL1a, huIgG1_LALA_PG (antibody, V domains shown) VH: QVQLVQSGAEVKKPGASVKVSCKASGYSFTGYYIHWVRQAPGQSLEWMGRVIPNAGGTSYNQKFKGRVTLTVDKSISTAYMELSRLRSDDTAVYYCAREGIYWWGQGTTVTVSS VL: DIVMTQTPLSLSVTPGQPASISCRSSQSLVHSNGNTFLHWYLQKPGQSPQLLIYTVSNRFSGVPDRFSGSGSGTDFTLKISRVEAEDVGVYFCSQTTHVPWTFGGGTKVEIKR and report it.
[A] 2.5

[Q] Look up Kd of P1AE0402, humanized anti-CD40 antibody VH2c/VL2a, huIgG1_LALA_PG (antibody, V domains shown, huIgG1 with effector silent Fc (P329G, L234A, L235A); also called VL2a/VH2c) VH: EVQLLESGGGLVQPGGSLRLSCAASGYSFTGYYIHWVRQAPGKGLEWVGRVIPNAGGTSYNQKFKGRFTISVDNSKNTAYLQMNSLRAEDTAVYYCAREGIYWWGHGTTVTVSS VL: DIQMTQSPSSLSASVGDRVTITCRSSQSLVHSNGNTFLHWYQQKPGKAPKLLIYTVSNRFSGVPSRFSGSGSGTDFTLTISSLQPEDFATYFCSQTTHVPWTFGGGTKVEIK and report it.
[A] 4.2

[Q] Look up Kd of P1AE0998, humanized anti-CD40 antibody VH1c/VL1d, huIgG1_LALA_PG (antibody, V domains shown, huIgG1 with effector silent Fc (P329G, L234A, L235A)) VH: QVQLVQSGAEVKKPGASVKVSCKASGYSFTGYYIHWVRQAPGQSLEWMGRVIPNAGGTSYNQKFKGRVTLTVDKSISTAYMELSRLRSDDTAVYYCAREGIYWWGHGTTVTVSS VL: DVVVTQTPLSLSVTPGQPASISCRSSQSLVHSNGNTFLHWYLQKPGQSPQLLIYTVSNRFSGVPDRFSGSGSGTDFTLKISRVEAEDVGVYFCSQTTHVPWTFGGGTKLEIK and report it.
[A] 3.3
